Cited source: patent US20200407435A1

target.desc: T1, human ANGPT2 (SPR analyte) (human, UniProt O15123 275-496, limits assumed)
T1 construct: domain: FLD domain; also called HuANGPT2; human ANGPT2 FLD domain
T1 sequence (looked up): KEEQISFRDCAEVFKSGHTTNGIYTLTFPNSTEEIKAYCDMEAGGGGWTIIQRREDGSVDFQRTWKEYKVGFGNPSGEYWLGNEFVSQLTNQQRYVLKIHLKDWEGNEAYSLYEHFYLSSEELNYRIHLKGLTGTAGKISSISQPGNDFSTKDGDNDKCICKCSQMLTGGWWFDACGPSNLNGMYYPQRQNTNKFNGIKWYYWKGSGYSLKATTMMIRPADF
test.method.notes: SPR (ProteOn XPR36), antibody captured on Protein A/G, ANGPT2 as analyte, 1:1 Langmuir fit
List of kon values.
Give your result in M⁻¹ s⁻¹ as a bare value.

Example entries begin here.
{"columns": ["binder", "unit.name", "kon"],
 "data": [
  ["ANGPT2-opt-19 (humanized) (antibody, human IgG1, kappa, V domains shown, also called Ang2-opt-19) VH: QVQLVQSGAEVKKPGSSVKVSCKASGYIFIDYFINWVRQAPGQGLEWMGKIGPGSGSSSSNEKFKGRVTITADKSTSTAYMELSSLRSEDTAVYYCAREAFDYDGDYYGMAYWGQGTLVTVSS VL: EIVMTQSPATLSVSPGERATLSCRASQSVLSSGNQKSFLAWYQQKPGQAPRLLIYGASTRETGIPARFSGSGSGTEFTLTISSLQSEDFAVYYCQQDHSYPITFGQGTKLEIKR", "M⁻¹ s⁻¹", 81800],
  ["MEDI3617 analog (Medimmune) (antibody, human IgG1, kappa, V domains shown, Based on the description in U.S. Pat. No. 8,507,656; also called MED3617 analog; analog of MED3617) VH: QVQLVESGGGVVQPGRSLRLSCAASGFTFTNYGMHWVRQAPGKGLEWVAVISHDGNNKYYVDSVKGRFTISRDNSKNTLYLQMNSLRAEDTAVYYCAREGIDFWSGLNWFDPWGQGTLVTVSS VL: EIVLTQSPGTLSLSPGERATLSCRASQSITGSYLAWYQQKPGQAPRLLITGASSWATGIPDRFSGSGSGTDFTLTISRLEPEDFAVYYCQQYSSSPITFGQGTRLEIKR", "M⁻¹ s⁻¹", 614000],
  ["ANGPT2-opt-13 (humanized) (antibody, human IgG1, kappa, V domains shown, also called Ang2-opt-13; ANGPT-opt-13) VH: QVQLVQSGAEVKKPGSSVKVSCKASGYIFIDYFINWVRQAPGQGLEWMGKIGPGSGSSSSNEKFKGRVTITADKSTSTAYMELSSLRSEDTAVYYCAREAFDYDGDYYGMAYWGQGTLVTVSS VL: EIVMTQSPATLSVSPGERATLSCKSSQSLLSSGNQKSFLAWYQQKPGQAPRLLIYGASTRETGIPARFSGSGSGTEFTLTISSLQSEDFAVYYCQNDHSYPITFGQGTKLEIKR", "M⁻¹ s⁻¹", 132000],
  ["ANGPT2-opt-1 (humanized) (antibody, human IgG1, kappa, V domains shown, also called Ang2-opt-1) VH: QVQLVQSGAEVKKPGSSVKVSCKASGYIFIDYFINWVRQAPGQGLEWMGKIGPGSGSSSSNEKFKGRVTITADKSTSTAYMELSSLRSEDTAVYYCAREAFDYEGDYYGMAYWGQGTLVTVSS VL: EIVMTQSPATLSVSPGERATLSCKSSQSLLASGNQKNFLAWYQQKPGQAPRLLIYGASTRESGIPARFSGSGSGTEFTLTISSLQSEDFAVYYCQNDHSYPITFGQGTKLEIKR", "M⁻¹ s⁻¹", 144000],
  ["ANGPT2-opt-2 (humanized) (antibody, human IgG1, kappa, V domains shown, also called Ang2-opt-2; ANGP12-opt-2) VH: QVQLVQSGAEVKKPGSSVKVSCKASGYIFIEYFINWVRQAPGQGLEWMGKIGPGSGSSSSNEKFKGRVTITADKSTSTAYMELSSLRSEDTAVYYCAREAFDYEGDYYGMAYWGQGTLVTVSS VL: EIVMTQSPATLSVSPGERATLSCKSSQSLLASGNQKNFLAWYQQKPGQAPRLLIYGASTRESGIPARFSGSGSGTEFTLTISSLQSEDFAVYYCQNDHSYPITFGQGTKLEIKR", "M⁻¹ s⁻¹", 125000]
]}

Could you tell me which kon is on file for chimeric lead CL-209881 (antibody, V domains shown, Chimeric antibody with murine variable domains; the constant regions of the tested antibody are not) VH: QVQLKQSGAELVKPGSSVKISCRASGYIFIDYFINWVKQRPGQGLEWIGKIGPGSGSSSSNEKFKGKATLTADKSSSTAYMQLSSLTSEDSAVYFCAREAFDYDGDYYGMAYWGQGTSVTVSS VL: DIVMTQSPSSLSVSAGEKVTMSCKSSQSLLNSGNQKNFLAWYQQKPGQPPKLLIYGASTRESGVPDRFTGSGSGTDFTLTITSVQAEDLAVYYCQNDHSYPITFGSGTKLEIK ? 151000

Could you tell me which kon is on file for ANGPT2-opt-31 (humanized) (antibody, human IgG1, kappa, V domains shown, also called Ang2-opt-31) VH: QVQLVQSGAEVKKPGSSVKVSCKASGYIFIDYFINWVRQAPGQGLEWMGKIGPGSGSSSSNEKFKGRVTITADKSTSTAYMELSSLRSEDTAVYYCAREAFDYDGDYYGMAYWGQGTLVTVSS VL: EIVMTQSPATLSVSPGERATLSCKSSQSLLSSGNQKSFLAWYQQKPGQAPRLLIYGASTRESGIPARFSGSGSGTEFTLTISSLQSEDFAVYYCQNDHSYPITFGQGTKLEIKR ? 125000
